- tested-on: RNA7
- protocol: Fluorescence binding assay, RNA7
- condition-description: RNA7, 1×1 CC loop

- structure-smiles-string: "CN1CCN(c2ccc3nc(-c4ccc5nc(-c6cccc(OCCCC(=O)NCCCN=[N+]=[N-])c6)[nH]c5c4)[nH]c3c2)CC1"
  Kd: "~1000 nM"

* * *

- tested-on: RNA1
- protocol: Fluorescence binding assay, RNA1
- condition-description: RNA1, fully paired hairpin cassette

- structure-smiles-string: "CN1CCN(c2ccc3nc(-c4ccc5nc(-c6cccc(OCCCC(=O)NCCCN=[N+]=[N-])c6)[nH]c5c4)[nH]c3c2)CC1"
  measurement-unit: "nM"
  Kd: 1700

Data origin, for the record: paper PMC2731475
